# System: SF-539 CNS
# assay.text: NCI-60 one-dose screen, 48 h (100 = growth as untreated, 0 = no growth, -100 = all killed)
# reported.conditions: 10 µM unless noted
The panel holds about 83,000 compounds, 20% with a hit somewhere; the sample as a whole holds those more often.
Could you please classify the records by growth using these ranges: one (below 30%), two (30% to below 90%), three (90% or more)

compound	category
Cc1ncc(C(=O)Nc2ccc(CN3CCN(C)CC3)c(C(F)(F)F)c2)cc1C#Cc1cnc(N)c2ccncc12	one
N#CC(C#N)N=Nc1ccc(Cl)cc1Cl	two
CO[C@H](C(=O)[C@@H](O)[C@@H](C)O)[C@@H]1Cc2cc3cc(O[C@H]4C[C@@H](O[C@H]5C[C@@H](O)[C@H](O)C(C)O5)[C@H](O)C(C)O4)c(C)c(O)c3c(O)c2C(=O)[C@H]1O[C@H]1C[C@@H](O[C@H]2C[C@@H](O[C@H]3C[C@@H](OC)[C@H](O)C(C)O3)[C@@H](O)C(C)O2)C(O)(O)C(C)O1 (some centres not stated)	one
Cc1ncc(C(=O)Nc2ccc(CN3CCN(C)CC3)c(C(F)(F)F)c2)cc1C#Cc1cnc(N)c2cnccc12	one
CCN1CCN(CC(=O)Nc2nc3ccc(NCc4ccc(Br)cc4)cc3s2)CC1	two
Cc1c2cnccc2c(C)c2c1c1cc(C3OCCCO3)ccc1n2C	one
COc1ccc2nc3ccccc3c(NCc3ccccc3)c2c1	one
C#Cc1cccc(Nc2nc3ccc([N+](=O)[O-])cc3nc2Nc2cccc(C#C)c2)c1	one
N=C(N)SCc1cccc2c(CSC(=N)N)cccc12	three
COC(=O)C1=C(C(=O)Nc2cccnc2)C2OC1(C(Cc1ccccc1)Oc1ccccc1)C1OC21 (configuration not stated)	two
c1ccc(CCc2ccccc2-c2cc(-c3ccccc3)on2)cc1	three
O=C1Nc2ccc(F)cc2/C1=C\c1nc(-c2ccccc2F)n2ccccc12	two
CCN(CC)CCNC(=O)c1ccc(-c2nc3ccc4[nH]ncc4c3c3c2CCCC3)cc1	two
Cc1nn(-c2ccccc2)c(/N=C/N(C)C)c1/C=C/C(=O)c1ccc(Cl)cc1	three
COc1cc2c(/C=C3\C(=O)Nc4ccccc43)c(C(=O)O)[nH]c2cc1C	three
COc1ccc(/C=C/C(=O)c2ccc(Nc3nc(Nc4ccc(F)cc4)nc(Nc4ccc(Cl)cc4)n3)cc2)cc1	three
Cn1ccnc1C(=O)/C=C/c1ccc(C(=O)Nc2ccc(F)cc2)cc1	one
Cc1cc2oc(=O)cc(CP(=O)(O)O)c2cc1O	three
Cn1c(=O)c2c(nc(NC3=NS(=O)(=O)c4ccccc43)n2Cc2ccccc2)n(C)c1=O	three
O=C1/C(=C/c2ccc(Br)cc2)COc2ccc(O)c(O)c21	one
CC(=O)c1c(Nc2ccc(F)c(F)c2F)[nH]c2c(F)cc(F)cc2c1=O	one
CC[C@H](CC[C@@H](C)[C@H]1CC[C@H]2[C@@H]3CC[C@@H]4CC(=O)/C(=C\c5ccncc5)C[C@]4(C)[C@H]3CC[C@]12C)C(C)C	three
CC1(C)CC2=C3C=C[C@@H]4[C@@]5(C)CC[C@H](O)C(C)(C)[C@@H]5CC[C@@]4(C)[C@]3(C)CC[C@@]2(C(=O)O)CC1=O	two
O=C(/C=C/c1ccccc1)Nc1ncc(Cc2ccccc2)s1	one
O=c1ccc2nc(C(F)(F)F)nn(-c3ccccc3)c-2c1	three
CC(C)c1ccc(-n2c(=S)[nH]c3sc4c(c3c2=O)CCC(=O)C4)cc1	one
NC(=O)OCCn1cc(-c2nc(-c3c[nH]c4ncccc34)cs2)c2ccccc21	two
O=C(O)CCCc1cnc2c3sccc3nc(SCc3c(Cl)cccc3Cl)n12	two
O=C(CCCCCCN1CC(=O)N2[C@@H](C3CCCCC3)c3[nH]c4ccccc4c3C[C@H]2C1=O)NO	two
NC(=O)c1c(NC(=O)c2ccc(Cl)cc2)sc2c1CCC(=O)C2	two
COc1cc(C2C3=C(COC3=O)N(CCO)c3cc4c(cc32)OCCO4)cc(OC)c1OC (configuration not stated)	one
O=C(Cn1cc(CN2C(=O)c3ccccc3S2(=O)=O)nn1)Nc1cccc(Cl)c1	three
